Listed next: entries and their corresponding melting point.

**Q:** Give a short answer stating reported melting point for O=C(Nc1cccnn1)N1CCN(c2nccc(-c3cc(F)cc(F)c3)n2)CC1 .
**A:** 270 to 271 °C

**Q:** Identify measured melting point corresponding to COc1ccc(C(=O)CCC(=O)O)cc1N
**A:** 136 to 137 °C

**Q:** Find the measured melting point of Cc1cc2ccccc2nc1-n1cncn1 and report it.
**A:** 80 to 81 °C

**Q:** Indicate its recorded melting point; the molecule in question is CNC(=O)c1ncc2[nH]c3ccc(N)cc3c2c1C
**A:** 281 to 285 °C

**Q:** Quick one: give measured melting point for Cc1noc(NS(=O)(=O)c2ccc(-c3cc4ccccc4s3)s2)c1Br
**A:** 164 °C

**Q:** Quote melting point reported for N#CC(CCN1CCC(C(=O)ON2C(=O)CCC2=O)(c2ccccc2)CC1)(c1ccccc1)c1ccccc1 please.
**A:** 156 to 158 °C

**Q:** Please give measured melting point of the following entry: Cc1ccc2c(c1)c1cc(-c3cc(F)cc(F)c3)c(=O)n(C)c1n2C
**A:** 240 °C

**Q:** Indicate its recorded melting point; the molecule in question is CN(C)C(=O)n1nc(N(C)C)c2ccc(Cl)cc21
**A:** 65 to 66 °C

**Q:** Note down melting point recorded for CC[C@H](C)[C@H](OCc1ccccc1)[C@H]1[C@H]([N+](=O)[O-])[C@@H]([C@@H](OCc2ccccc2)C(C)C)N[C@@H]1C(=O)NCC(=O)O
**A:** 153 to 155 °C

**Q:** Query melting point for Cc1cc(C(=O)Nc2ccc(S(=O)(=O)C(F)(F)F)cc2Cl)c(O)c(C(C)(C)C)c1
**A:** 209 to 212 °C

**Q:** Please give the documented melting point of Clc1ncccc1OCCOc1ccccc1
**A:** 77 to 78 °C

* * *

Measured melting point, listed per entry.

>  <compound>
CCCCCC(CC(=O)Nc1cc(C(N)=O)ccc1C(C)(C)C)c1ccc(C)cc1OC (stereo not given)

>  <melting point>
175 to 177 °C

$$$$
>  <compound>
CC(=O)Oc1ccc(C(=O)N2CCN(C(N)=O)C2=O)cc1OC(C)=O

>  <melting point>
222 to 224 °C

$$$$
>  <compound>
CCC(=O)N(C)c1cccc(-c2ccnc3c(C(=O)c4ccco4)cnn23)c1

>  <melting point>
153 to 155 °C

$$$$
>  <compound>
CC(=O)OC1c2ccc(Cl)cc2CC1S(C)(=O)=O (stereo not given)

>  <melting point>
136 °C

$$$$

**Q:** Identify the reported melting point for the following entry. CN(C)c1ccc(NC(=O)N(Cc2ccccc2)C[C@H]2CC[C@H](CN(Cc3ccccc3)C(=O)Nc3ccc(N(C)C)cc3)CC2)cc1
**A:** 142 to 144 °C

* * *

Some compounds, each annotated with its measured melting point.

Previously resolved entries follow.
>  <compound>
O=C1c2ccccc2C(=O)N1OCc1cc(Cl)c2c(c1Cl)OC(c1ccccc1)(c1ccccc1)O2

>  <melting point>
127 to 129 °C

$$$$
>  <compound>
CCOc1ccc(Cc2cc([C@@H]3O[C@H](SC)[C@@H](O)[C@H](O)[C@H]3O)ccc2Cl)cc1

>  <melting point>
123 °C

$$$$
>  <compound>
N#Cc1cc([N+](=O)[O-])ccc1Oc1ccc(Oc2ccccc2)cc1

>  <melting point>
150 to 152 °C

$$$$

**Q:** Using the record for Cc1cc(-n2nc(C(F)F)cc2-c2ccc(S(C)(=O)=O)cc2)ccc1Br , state its measured melting point.
**A:** 141 to 142 °C

**Q:** Please list melting point recorded for the compound Cc1cnc(CNC(=O)CCc2cnoc2-c2ccc(Cl)cc2)cn1
**A:** 124 to 125 °C

**Q:** Return value of melting point for input CCC(Oc1cccc(C(F)(F)F)c1)C(=O)NCc1ccccc1Cl (centres undefined) , no commentary.
**A:** 66 to 68 °C
